- PROTOCOL_DETAILS: Treatment-emergent adverse events and tozadenant plasma Cmax by dose in patients (Table 19)
- Type: in vivo, human
- CONDITION_SUMMARY: human, oral; 180 mg BID; plasma; read-out: Cmax (ng/mL) at ~5 hr postdose at Day 1
- Excerpt: Table 19 summarizes the dose response of AEs observed in patients taking tozadenant alongside the plasma Cmax. A clear trend of increasing AEs and discontinuation of therapy is seen with doses that result in higher tozadenant Cmax. A controlled-release formulation can be used to achieve the drug levels (Css) that are therapeutically effective while avoiding the high plasma Cmax and AEs associated with high doses of an IR formulation.

COMPOUND | UNIT_TAG | Cmax
COc1ccc(N2CCOCC2)c2sc(NC(=O)N3CCC(C)(O)CC3)nc12 [tozadenant] | ng/mL | 999
